# System: HuH7 cells
# Type: cell-based, human
observable: pEC50
Answers are plain numbers, as −log10 of the molar value.

q: Any idea what pEC50 was measured for `Nc1nc(Nc2ccc(S(N)(=O)=O)cc2)nn1C(=S)Nc1c(F)cccc1F` ?
a: 4.17

###

# Test system: P. falciparum Dd2 asexual blood stage parasites
# assay_protocol: P. falciparum Dd2 asexual blood stage inhibition
# Assay type: cell-based, Plasmodium falciparum
# assay_conditions: read-out: blood stage parasite EC50, dose-response
observable: pEC50
One number for each entry, as −log10 of the molar value.

q: Any idea what pEC50 was measured for `Nc1nc(Nc2ccc(S(N)(=O)=O)cc2)nn1C(=S)Nc1c(F)cccc1F` ?
a: 6.85

Just for reference, paper PMC6436633 is where these values come from.
